test system: rodent lifetime carcinogenesis bioassay, tumor incidence TD50; assay: carcinogenic potency in animals, long-term in vivo studies, CPDB compilation (AID 1745844); settings: rat; strain Fischer 344; males; by gavage; site: lung; lesion: alveolar/bronchiolar adenoma; dosed 103 weeks; study length 105 weeks
measuredAttribute: TD50
I'd appreciate it if you included the unit after the number.

In: What measured TD50 goes with COc1c2occc2cc2ccc(=O)oc12 ?
Out: 57.1 mg/kg/day

###

tested on: rodent lifetime carcinogenesis bioassay, tumor incidence TD50; assay: carcinogenic potency in animals, long-term in vivo studies, CPDB compilation (AID 1745844); settings: rat; strain Wistar; females; inhaled; site: lung; lesion: several types; types named in the paper; dosed 78 weeks; study length 134 weeks
measuredAttribute: TD50

In: Form entry - test system: rodent lifetime carcinogenesis bioassay, tumor incidence TD50; read-out: TD50; compound: [Cl][Cd][Cl]
Out: 0.00971 mg/kg/day

These measurements were taken from PubChem BioAssay AID1745844.
